Values were extracted from ChEMBL document CHEMBL2429818.

target: Nucleic Acid; test: Displacement of fluorescein and rhodamine-labeled TAT peptide from HIV TAR RNA by FRET assay
Entry class follows IC50: zone 1 (below 0.4 µM), zone 2 (0.4 µM to below 1 µM), zone 3 (1 µM or more)

compound=CN1CCN(c2ccc3nc(-c4ccc(OCc5cn(CCCCCCn6cc(CCCCc7cn(C[C@H]8O[C@@H](O[C@@H]9[C@@H](O)[C@H](N)C[C@H](N)[C@H]9O[C@H]9O[C@H](CN)[C@@H](O)[C@H](O)[C@H]9N)[C@H](O)[C@@H]8O[C@H]8O[C@@H](CN)[C@@H](O)[C@H](O)[C@H]8N)nn7)nn6)nn5)cc4)[nH]c3c2)CC1 assignedcategory="zone 3"
compound=CN1CCN(c2ccc3nc(-c4ccc(OCCn5cc(COCc6cn(C[C@H]7O[C@@H](O[C@@H]8[C@@H](O)[C@H](N)C[C@H](N)[C@H]8O[C@H]8O[C@H](CN)[C@@H](O)[C@H](O)[C@H]8N)[C@H](O)[C@@H]7O[C@H]7O[C@@H](CN)[C@@H](O)[C@H](O)[C@H]7N)nn6)nn5)cc4)[nH]c3c2)CC1 assignedcategory="zone 3"
compound=CN1CCN(c2ccc3nc(-c4ccc(OCCn5cc(CCCc6cn(C[C@H]7O[C@@H](O[C@@H]8[C@@H](O)[C@H](N)C[C@H](N)[C@H]8O[C@H]8O[C@H](CN)[C@@H](O)[C@H](O)[C@H]8N)[C@H](O)[C@@H]7O[C@H]7O[C@@H](CN)[C@@H](O)[C@H](O)[C@H]7N)nn6)nn5)cc4)[nH]c3c2)CC1 assignedcategory="zone 2"
compound=CN1CCN(c2ccc3nc(-c4ccc(OCc5cn(C[C@H]6O[C@@H](O[C@@H]7[C@@H](O)[C@H](N)C[C@H](N)[C@H]7O[C@H]7O[C@H](CN)[C@@H](O)[C@H](O)[C@H]7N)[C@H](O)[C@@H]6O[C@H]6O[C@@H](CN)[C@@H](O)[C@H](O)[C@H]6N)nn5)cc4)[nH]c3c2)CC1 assignedcategory="zone 1"
compound=CN1CCN(c2ccc3nc(-c4ccc(OCc5cn(CCCCCCCCCCn6cc(CCCCc7cn(C[C@H]8O[C@@H](O[C@@H]9[C@@H](O)[C@H](N)C[C@H](N)[C@H]9O[C@H]9O[C@H](CN)[C@@H](O)[C@H](O)[C@H]9N)[C@H](O)[C@@H]8O[C@H]8O[C@@H](CN)[C@@H](O)[C@H](O)[C@H]8N)nn7)nn6)nn5)cc4)[nH]c3c2)CC1 assignedcategory="zone 3"
compound=CN1CCN(c2ccc3nc(-c4ccc(OCCn5cc(CCc6cn(C[C@H]7O[C@@H](O[C@@H]8[C@@H](O)[C@H](N)C[C@H](N)[C@H]8O[C@H]8O[C@H](CN)[C@@H](O)[C@H](O)[C@H]8N)[C@H](O)[C@@H]7O[C@H]7O[C@@H](CN)[C@@H](O)[C@H](O)[C@H]7N)nn6)nn5)cc4)[nH]c3c2)CC1 assignedcategory="zone 1"
compound=CN1CCN(c2ccc3nc(-c4ccc(OCCn5cc(CCCCCCc6cn(C[C@H]7O[C@@H](O[C@@H]8[C@@H](O)[C@H](N)C[C@H](N)[C@H]8O[C@H]8O[C@H](CN)[C@@H](O)[C@H](O)[C@H]8N)[C@H](O)[C@@H]7O[C@H]7O[C@@H](CN)[C@@H](O)[C@H](O)[C@H]7N)nn6)nn5)cc4)[nH]c3c2)CC1 assignedcategory="zone 2"
compound=CN1CCN(c2ccc3nc(-c4ccc(OCCn5cc(-c6ccc(-c7cn(C[C@H]8O[C@@H](O[C@@H]9[C@@H](O)[C@H](N)C[C@H](N)[C@H]9O[C@H]9O[C@H](CN)[C@@H](O)[C@H](O)[C@H]9N)[C@H](O)[C@@H]8O[C@H]8O[C@@H](CN)[C@@H](O)[C@H](O)[C@H]8N)nn7)cc6)nn5)cc4)[nH]c3c2)CC1 assignedcategory="zone 1"
compound=CN1CCN(c2ccc3nc(-c4ccc(OCc5cn(CCCCCn6cc(CCCCc7cn(C[C@H]8O[C@@H](O[C@@H]9[C@@H](O)[C@H](N)C[C@H](N)[C@H]9O[C@H]9O[C@H](CN)[C@@H](O)[C@H](O)[C@H]9N)[C@H](O)[C@@H]8O[C@H]8O[C@@H](CN)[C@@H](O)[C@H](O)[C@H]8N)nn7)nn6)nn5)cc4)[nH]c3c2)CC1 assignedcategory="zone 2"
compound="NC[C@@H]1O[C@H](O[C@H]2[C@@H](O)[C@H](O[C@@H]3[C@@H](O)[C@H](N)C[C@H](N)[C@H]3O[C@H]3O[C@H](CN)[C@@H](O)[C@H](O)[C@H]3N)O[C@@H]2CO)[C@H](N)[C@@H](O)[C@@H]1O [FRAMYCETIN]" assignedcategory="zone 3"
